Provide the reported GI50 of each item.
- Test system: SK-OV-3
- assay overview: NCI tumour cell line growth inhibition, 48 h
Calls of active or inactive are those of the source. Rule as the data show it: active = GI50 up to about 1.1 µM and inactive = higher.

Measured GI50 (SK-OV-3), entry `Cc1ccc(Oc2ccccc2N)cc1` : > 100 µM (inactive)

Measured GI50 (SK-OV-3), entry Cc1c(-c2ccc(-c3ccccc3F)cc2)nc2ccc(F)cc2c1C(=O)O [BREQUINAR SODIUM] : 16.1 µM (inactive)

Measured GI50 (SK-OV-3), entry O=C1C(C(O)(C(F)(F)Cl)C(F)(F)Cl)CCCC1C(O)(C(F)(F)Cl)C(F)(F)Cl (stereo not drawn) : > 10 µM (inactive)

Measured GI50 (SK-OV-3), entry `Oc1cc(-c2cccc(Br)c2)nc2cc3c(cc12)OCO3` : 3.8 µM (inactive)

Measured GI50 (SK-OV-3), entry `Ic1cc2c(cc1C1SCCCS1)OCO2` : > 100 µM (inactive)

Measured GI50 (SK-OV-3), entry `Cl[Si]1(Cl)Oc2ccccc2O[Si](Cl)(Cl)Oc2ccccc2O1` : 54.3 µM (inactive)

Measured GI50 (SK-OV-3), entry `CO/N=C(\C)c1cccc(Nc2nc3ccccc3c3occc23)c1` : 14.1 µM (inactive)

Measured GI50 (SK-OV-3), entry C=C1CCCC2OC(OC)CCC12 (stereo not drawn) : > 100 µM (inactive)

Measured GI50 (SK-OV-3), entry `O=C(O)c1cscc1Cc1cccs1` : > 100 µM (inactive)

Measured GI50 (SK-OV-3), entry COC1OC2COC(c3ccccc3)OC2C(O)C1OC(=S)c1ccccc1 (stereo not drawn) : > 100 µM (inactive)

Measured GI50 (SK-OV-3), entry CC(C)C(O)(C(=O)OCN1C(=O)C2C3C=CC(C2C1=O)C1C2C(=O)N(COC(=O)C(O)(C(C)C)C(C)O)C(=O)C2C31)C(C)O (stereo not drawn) : > 100 µM (inactive)

Measured GI50 (SK-OV-3), entry `Cc1ccc([N+](=O)[O-])cc1NC(=O)C(=O)Cc1cc(=O)oc2cc(O)ccc12` : > 100 µM (inactive)

Measured GI50 (SK-OV-3), entry `Cc1ccc(SCN2CCCCC2)cc1.O=C(Cl)c1ccc([N+](=O)[O-])cc1` : 12.9 µM (inactive)

Measured GI50 (SK-OV-3), entry CC(O)/C=C/C(CCC(C)CO)C(C)C (stereo not drawn) : > 100 µM (inactive)

Measured GI50 (SK-OV-3), entry COC(=O)C(=O)C(C(=O)C(=O)Nc1ccc(C)c(C)c1)c1nc2ccc([N+](=O)[O-])cc2nc1O (stereo not drawn) : > 100 µM (inactive)

Measured GI50 (SK-OV-3), entry `Cc1ccc(/N=N/c2ccc(O)c(CN(C)C)c2)cc1C` : 45 µM (inactive)

Measured GI50 (SK-OV-3), entry `COC(=O)/C([Se]c1c(C)cc(C)cc1C)=C(/[Se]c1c(C)cc(C)cc1C)C(=O)OC` : > 100 µM (inactive)

Measured GI50 (SK-OV-3), entry `Nc1nc(SCC(=O)O)nc(O)c1N` : > 100 µM (inactive)

Measured GI50 (SK-OV-3), entry O=C1/C(=C/c2n[nH]cc2-c2ccc(Cl)cc2)C(=O)N(c2ccccc2)C1c1ccccc1 (stereo not drawn) : 15.5 µM (inactive)

Measured GI50 (SK-OV-3), entry NC(Cc1ccc(CP(=O)(O)O)cc1)C(=O)O (stereo not drawn) : > 100 µM (inactive)

Measured GI50 (SK-OV-3), entry `O=C1NC2(CCNCC2)Oc2ccccc21` : > 100 µM (inactive)

Measured GI50 (SK-OV-3), entry `CC(=O)Nc1ccccc1S(=O)(=O)c1c(-c2c(C)c(Cl)c(C)c(Cl)c2C)noc1C` : 31.7 µM (inactive)

Measured GI50 (SK-OV-3), entry `Cc1nc(Nc2ccccc2)sc1C(=O)NNC(N)=O` : > 100 µM (inactive)

Measured GI50 (SK-OV-3), entry `OCCCNCc1ccncc1` : > 100 µM (inactive)

Measured GI50 (SK-OV-3), entry O=C1N/C(=N/N=C/C(O)C(O)C(O)CO)N/C1=C\c1ccco1 (stereo not drawn) : > 100 µM (inactive)

Measured GI50 (SK-OV-3), entry CCOC(=O)/C(=C\c1cn(C(C)=O)c2ccccc12)P(C)(=O)OCC (stereo not drawn) : 27.1 µM (inactive)

Measured GI50 (SK-OV-3), entry `CC(C)(C)OC(=O)N(CCCCNCc1ccc2ccccc2c1)CCCNCc1ccc2ccccc2c1` : 1.94 µM (inactive)

Measured GI50 (SK-OV-3), entry Cc1ccc(C)c(C2NC(=O)c3ccccc3N2)c1 (stereo not drawn) : 2.02 µM (inactive)

Measured GI50 (SK-OV-3), entry `COc1ccc2c(c1)c1c(n2CCN2CCOCC2)-c2ccccc2CC1` : > 100 µM (inactive)

Measured GI50 (SK-OV-3), entry `O=C1CCCCC(=O)Nc2ccccc2N1` : > 100 µM (inactive)

Measured GI50 (SK-OV-3), entry OCC1OC(c2nc(C3=NCCCN3)cs2)C(O)C1O (stereo not drawn) : > 100 µM (inactive)

Measured GI50 (SK-OV-3), entry `CC1=C(O)C(=O)[C@@H]2O[C@@H]2C1=O` : 33.4 µM (inactive)

Measured GI50 (SK-OV-3), entry `O=C1C(c2ccccc2)=[N+]([O-])c2cc([N+](=O)[O-])c(/C(Cl)=C/c3ccccc3)cc21` : > 100 µM (inactive)

Measured GI50 (SK-OV-3), entry CC(=O)N(CN1C(=O)CCC1C(=O)O)c1ccccc1Cl (stereo not drawn) : > 100 µM (inactive)

Measured GI50 (SK-OV-3), entry `NCOC(=O)Cc1ccc(Br)cc1` : > 100 µM (inactive)

Measured GI50 (SK-OV-3), entry `Oc1ccc2ccccc2c1/N=N/c1cc(Cl)ccc1Cl` : 10.8 µM (inactive)

Measured GI50 (SK-OV-3), entry `COC(=O)C1=C(C(=O)OC)SC2(S1)C(C(=O)OC)=C(C(=O)OC)Sc1c2ss/c1=N\c1ccc(Cl)cc1` : 2 µM (inactive)

Measured GI50 (SK-OV-3), entry CC(C)(C)OC(=O)NC(Cc1ccc([N+](=O)[O-])cc1)C(=O)NC(CCCCNC(=O)OCc1ccccc1)C(=O)ON1C(=O)CCC1=O (stereo not drawn) : > 100 µM (inactive)
